System: Cladosporium cucumerinum
TEST DESCRIPTION: Antifungal activity against Cladosporium cucumerinum after 2 to 3 days by bioautographic assay
Assay type: functional, organism-based
Calls of active or inactive are those of the source. No cut-off for these calls is given here.
Outcomes: 1.0 = active, 0.0 = inactive

| SMILES STRUCTURE | GROUP LABEL |
| --- | --- |
| CC(C)CC(=O)C[C@@](C)(O)[C@H]1CC[C@H]2[C@@H]3C[C@H](O[C@@H]4O[C@H](C)[C@@H](O)[C@H](O[C@@H]5OC[C@@H](O[C@@H]6O[C@H](CO)[C@H](O)[C@H](O)[C@H]6O[C@@H]6O[C@H](C)[C@H](O[C@@H]7O[C@H](CO)[C@H](O)[C@H](O)[C@H]7O)[C@H](O)[C@H]6O)[C@H](O)[C@H]5O[C@@H]5O[C@H](C)[C@@H](O)[C@H](O)[C@H]5O)[C@H]4O)[C@H]4C[C@@H](OS(=O)(=O)O)CC[C@]4(C)C3=CC[C@@]21C | 1.0 |
| CC(=O)[C@H]1CC[C@H]2[C@@H]3C[C@H](O[C@@H]4O[C@H](C)[C@@H](O)[C@H](O[C@@H]5OC[C@@H](O[C@@H]6O[C@H](CO)[C@H](O)[C@H](O)[C@H]6O[C@@H]6O[C@H](C)[C@H](O[C@@H]7O[C@H](CO)[C@H](O)[C@H](O)[C@H]7O)[C@H](O)[C@H]6O)[C@H](O)[C@H]5O[C@@H]5O[C@H](C)[C@@H](O)[C@H](O)[C@H]5O)[C@H]4O)[C@H]4C[C@@H](OS(=O)(=O)O)CC[C@]4(C)C3=CC[C@]12C | 0.0 |
| CC(C)CC(=O)C[C@@](C)(O)[C@H]1CC[C@H]2[C@@H]3C[C@H](O[C@@H]4O[C@H](C)[C@@H](O)[C@H](O[C@@H]5OC[C@@H](O)[C@H](O)[C@H]5O[C@@H]5O[C@H](C)[C@@H](O)[C@H](O)[C@H]5O)[C@H]4O)[C@H]4C[C@@H](OS(=O)(=O)O)CC[C@]4(C)C3=CC[C@@]21C | 0.0 |
| CC(C)CC(=O)C[C@@](C)(O)[C@H]1CC[C@H]2[C@@H]3C[C@H](O[C@@H]4O[C@H](C)[C@@H](O)[C@H](O[C@@H]5OC[C@@H](O[C@@H]6O[C@H](CO)[C@H](O)[C@H](O)[C@H]6O[C@@H]6O[C@H](C)[C@H](O)[C@H](O)[C@H]6O)[C@H](O)[C@H]5O[C@@H]5O[C@H](C)[C@@H](O)[C@H](O)[C@H]5O)[C@H]4O)[C@H]4C[C@@H](OS(=O)(=O)O)CC[C@]4(C)C3=CC[C@@]21C | 1.0 |
